The measurements presented in this section are drawn from paper PMC10568112.

Test Name: Pharmacokinetics after oral SNZ in normal Balb/c mice and pseudo-germfree
Type: in vivo
Condition Description: Balb/c, mouse, plasma, po, 109.2 mg/kg, tmax, PGF mice, oral SNZ 109.2 mg/kg, mean
Recorded Metric: Tmax (min)
Use min as the unit, but write only the number.

Query string: Which Tmax value belongs to OC[C@H]1O[C@@H](OCCc2ccc(O)cc2)[C@H](O)[C@@H](O)[C@@H]1O [Salidroside, salidroside] ?
Result string: 16

----------
Test Name: Pharmacokinetics after oral SNZ in normal Balb/c mice and pseudo-germfree
Assay type: in vivo
Condition Description: Balb/c, mouse, plasma, po, 109.2 mg/kg, tmax, normal Balb/c mice, oral SNZ 109.2 mg/kg, mean
Task for the reader: assign each of the following compounds its reported Tmax.
Give a bare numeral; the unit min is implied.

Query string: If you can, please state the reported Tmax value of OC[C@H]1O[C@@H](OCCc2ccc(O)cc2)[C@H](O)[C@@H](O)[C@@H]1O [Salidroside, salidroside] .
Result string: 44

Query string: Try OCCc1ccc(O)cc1 [Tyrosol, tyrosol] next.
Result string: 36
